TARGET_OR_TEST_SYSTEM: T1, CEACAM1-HIS (Sino Biologics Inc.) (Homo sapiens (Human), UniProt P13688 35-428)
T1 construct: bought; not shown: His tag
T1 sequence: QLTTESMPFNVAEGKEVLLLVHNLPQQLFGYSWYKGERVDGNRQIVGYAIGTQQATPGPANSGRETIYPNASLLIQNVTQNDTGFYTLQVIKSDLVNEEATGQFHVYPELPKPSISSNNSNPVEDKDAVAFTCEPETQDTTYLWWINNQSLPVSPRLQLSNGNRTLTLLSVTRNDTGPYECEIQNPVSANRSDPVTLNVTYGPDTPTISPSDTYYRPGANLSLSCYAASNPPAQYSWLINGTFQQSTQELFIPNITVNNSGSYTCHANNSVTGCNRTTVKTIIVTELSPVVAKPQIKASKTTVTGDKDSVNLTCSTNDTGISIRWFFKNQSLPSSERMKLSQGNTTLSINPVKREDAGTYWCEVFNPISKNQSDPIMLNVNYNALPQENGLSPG
MEASUREMENT_PROTOCOL: SPR multi-cycle, IgG on Protein A
Known relative KD to chimeric parental antibody of a selection of binders
ASSAY_METRIC: relative KD to chimeric parental antibody (ratio)

>  <BINDER>
VH2/Vκ2 (antibody, V domains shown) VH: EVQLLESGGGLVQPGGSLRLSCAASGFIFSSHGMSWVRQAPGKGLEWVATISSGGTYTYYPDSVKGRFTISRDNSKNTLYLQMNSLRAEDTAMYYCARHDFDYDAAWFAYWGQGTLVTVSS VL: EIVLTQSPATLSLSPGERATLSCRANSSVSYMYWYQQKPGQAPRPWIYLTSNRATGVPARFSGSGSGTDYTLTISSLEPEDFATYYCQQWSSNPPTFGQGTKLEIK

>  <RECORDED_NUMBER>
1.25

$$$$
>  <BINDER>
VH2/Vκ1 (antibody, V domains shown) VH: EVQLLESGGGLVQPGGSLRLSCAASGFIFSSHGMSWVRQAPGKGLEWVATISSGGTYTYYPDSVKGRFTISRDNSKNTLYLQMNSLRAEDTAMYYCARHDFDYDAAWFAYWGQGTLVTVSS VL: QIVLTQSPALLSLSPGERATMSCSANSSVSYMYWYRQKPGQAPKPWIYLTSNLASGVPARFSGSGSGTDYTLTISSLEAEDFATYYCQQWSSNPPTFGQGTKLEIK

>  <RECORDED_NUMBER>
1.22

$$$$
>  <BINDER>
VH1/Vκ2 (antibody, V domains shown) VH: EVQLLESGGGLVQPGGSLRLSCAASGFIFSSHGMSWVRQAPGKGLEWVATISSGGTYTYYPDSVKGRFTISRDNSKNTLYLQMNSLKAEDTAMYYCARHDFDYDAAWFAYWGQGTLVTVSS VL: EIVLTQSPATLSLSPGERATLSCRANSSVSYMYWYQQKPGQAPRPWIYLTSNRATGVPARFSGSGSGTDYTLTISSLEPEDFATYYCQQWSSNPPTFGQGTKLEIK

>  <RECORDED_NUMBER>
1.27

$$$$
>  <BINDER>
VH1/Vκ1 (antibody, V domains shown) VH: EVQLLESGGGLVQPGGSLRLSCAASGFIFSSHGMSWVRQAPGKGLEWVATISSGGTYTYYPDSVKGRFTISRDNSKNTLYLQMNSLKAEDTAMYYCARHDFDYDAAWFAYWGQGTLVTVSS VL: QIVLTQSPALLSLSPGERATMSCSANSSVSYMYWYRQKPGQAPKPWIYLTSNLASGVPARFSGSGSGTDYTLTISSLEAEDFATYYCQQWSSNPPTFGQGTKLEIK

>  <RECORDED_NUMBER>
1.4

$$$$
